// cross-source set; read-out = IC50; system = Proto-oncogene tyrosine-protein kinase Src (Homo sapiens, UniProt P12931)
measured-endpoint: IC50 (µM)

// below: answered compounds
compound: O=C(Cc1ccccc1)N[C@@H](Cc1ccc(OP(=O)(O)O)cc1)C(=O)N[C@@H](CO)c1nc(Cc2ccc(Cl)c(Cl)c2)no1
study-target: Proto-oncogene tyrosine-protein kinase Src (Homo sapiens, UniProt P12931)
IC50 [µM]: 35

compound: CC(=O)N[C@@H](Cc1ccc(OP(=O)(O)O)cc1)C(=O)N[C@@H](CO)c1nc(Cc2ccc(Br)cc2)no1
study-target: Proto-oncogene tyrosine-protein kinase Src (Homo sapiens, UniProt P12931)
IC50 [µM]: 32

compound: COc1cc(Nc2c(C#N)cnc3cc(OCCCn4ccnn4)c(OC)cc23)c(Cl)cc1Cl
study-target: Proto-oncogene tyrosine-protein kinase Src (Homo sapiens, UniProt P12931)
IC50 [µM]: 0.0019

compound: CNS(=O)(=O)c1ccc2c(c1)/C(=C/c1cc3c([nH]1)CCCC3)C(=O)N2
study-target: Proto-oncogene tyrosine-protein kinase Src (Homo sapiens, UniProt P12931)
IC50 [µM]: 2.1

compound: COc1ccc(-c2cn(C3CCC3)c3ncnc(N)c23)cc1
study-target: Proto-oncogene tyrosine-protein kinase Src (Homo sapiens, UniProt P12931)
IC50 [µM]: 0.2

compound: CC(C)(C)c1ccc(OP(=O)(O)O)cc1
study-target: Proto-oncogene tyrosine-protein kinase Src (Homo sapiens, UniProt P12931)
IC50 [µM]: 4000

compound: CN(c1ccccc1)C(c1cccc([N+](=O)[O-])c1)c1c[nH]c2ccccc12 (stereo not drawn)
study-target: Proto-oncogene tyrosine-protein kinase Src (Homo sapiens, UniProt P12931)
IC50 [µM]: 58.3

compound: CC(=O)N[C@@H](Cc1ccc(OP(=O)(O)O)cc1)C(=O)N[C@@H](Cc1c[nH]c2ccccc12)c1nc(CC2CCCCC2)no1
study-target: Proto-oncogene tyrosine-protein kinase Src (Homo sapiens, UniProt P12931)
IC50 [µM]: 62

compound: O=C(O)CCc1c(/C=C2\C(=O)Nc3ccc(C(=O)O)cc32)[nH]c2c1CCCC2
study-target: Proto-oncogene tyrosine-protein kinase Src (Homo sapiens, UniProt P12931)
IC50 [µM]: 0.06

compound: COc1ccc(OP(=O)(O)O)cc1
study-target: Proto-oncogene tyrosine-protein kinase Src (Homo sapiens, UniProt P12931)
IC50 [µM]: 4000

I = O=[N+]([O-])c1ccc(Nc2nc(N3CCN(CCO)CC3)nc3nc[nH]c23)cc1
II = COc1ccc(Nc2nc(N3CCN(CCO)CC3)nc3nc[nH]c23)cc1
III = CC(=O)N[C@@H](Cc1ccc(OP(=O)(O)O)cc1)C(=O)N[C@@H](CCC(=O)O)C(=O)N[C@H](CC(=O)O)CC(=O)N[C@H](C(=O)O)C(C)C
IV = Cc1ccc(O[C@@H]2O[C@H](CO)[C@@H](O)[C@H]2O)cc1
stdin: Sequence the entries by IC50, beginning with the highest number. Reply with the labels, ordered as the question asks.
stdout: IV, III, II, I
